- Experimental Target: Fuc(a1-2)[GalNAc(b1-3)]Gal
- Measurement Notes: glycan array binding signal (z-score within array); higher = stronger binding
- Experimental Conditions: glycan notation: IUPAC condensed, linker removed
Only a selection was taken, and the strongest signals are over-represented in it overall.
glycan array binding signal (z-score) for assorted binders

[
  {
    "Binder": "Nc3LysM (protein) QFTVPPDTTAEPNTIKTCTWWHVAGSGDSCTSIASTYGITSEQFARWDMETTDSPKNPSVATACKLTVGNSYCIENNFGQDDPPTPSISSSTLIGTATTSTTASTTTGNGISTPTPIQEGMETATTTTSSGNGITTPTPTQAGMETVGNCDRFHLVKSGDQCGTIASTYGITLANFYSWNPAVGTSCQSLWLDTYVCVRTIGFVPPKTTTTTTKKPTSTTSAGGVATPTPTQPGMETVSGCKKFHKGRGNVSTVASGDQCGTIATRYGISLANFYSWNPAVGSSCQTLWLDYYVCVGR",
    "glycan array binding signal (z-score)": -0.092
  },
  {
    "Binder": "CML1 (Coprinopsis cinerea) (protein) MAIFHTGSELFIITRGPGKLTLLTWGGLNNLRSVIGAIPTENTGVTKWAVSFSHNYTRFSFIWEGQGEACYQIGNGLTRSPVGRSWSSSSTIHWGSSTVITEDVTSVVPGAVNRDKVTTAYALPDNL",
    "glycan array binding signal (z-score)": -0.318
  },
  {
    "Binder": "XTP3-B-MRH1 (Homo sapiens), Q96DZ1 (protein) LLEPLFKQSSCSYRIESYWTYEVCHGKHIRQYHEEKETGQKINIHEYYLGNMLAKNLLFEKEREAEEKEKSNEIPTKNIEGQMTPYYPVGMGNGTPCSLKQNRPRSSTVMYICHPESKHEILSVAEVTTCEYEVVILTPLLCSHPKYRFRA",
    "glycan array binding signal (z-score)": -1.01
  },
  {
    "Binder": "DC-ASGPR L+GEE (Homo sapiens) (protein) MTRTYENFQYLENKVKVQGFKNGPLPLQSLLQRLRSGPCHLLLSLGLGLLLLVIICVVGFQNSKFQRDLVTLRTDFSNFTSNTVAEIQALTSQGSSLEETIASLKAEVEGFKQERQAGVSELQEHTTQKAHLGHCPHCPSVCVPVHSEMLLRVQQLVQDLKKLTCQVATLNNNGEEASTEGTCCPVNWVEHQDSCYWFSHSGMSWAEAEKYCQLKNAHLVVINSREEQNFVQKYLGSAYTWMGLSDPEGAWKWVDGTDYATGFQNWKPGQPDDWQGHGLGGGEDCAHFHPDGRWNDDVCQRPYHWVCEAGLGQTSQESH",
    "glycan array binding signal (z-score)": 3.61
  },
  {
    "Binder": "GSL-I-B4 (Griffonia simplicifolia) (protein) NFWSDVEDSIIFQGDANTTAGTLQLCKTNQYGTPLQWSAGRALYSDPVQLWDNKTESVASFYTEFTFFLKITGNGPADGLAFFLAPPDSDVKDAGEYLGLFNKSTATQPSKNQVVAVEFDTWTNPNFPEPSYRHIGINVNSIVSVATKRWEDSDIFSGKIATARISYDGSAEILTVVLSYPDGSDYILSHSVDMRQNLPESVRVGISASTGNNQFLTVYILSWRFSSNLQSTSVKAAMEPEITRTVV",
    "glycan array binding signal (z-score)": -0.12
  }
]
